Source of measurements: ChEMBL document CHEMBL5653618

test system: BT-474; assay: Antiproliferative activity against human BT-474 cells assessed as inhibition of cell growth measured after 72 hrs by CellTiter-Glo assay; assay type: functional, cell-based; settings: BT-474, 72 h
Measurement label: pIC50
pIC50 here: minus log base 10 of the concentration, concentration in moles per litre.

Give the reported value of pIC50 for this record: COc1ncc(-c2ccc3nccc(-c4ccnnc4)c3c2)cc1NS(=O)(=O)c1ccc(F)cc1F 8.62

###

experiment: Clearance in dog at 0.1 mg/kg, iv by HPLC/MS/MS analysis; type: ADME, organism-based, Canis lupus familiaris; settings: in vivo
Measurement label: clearance

Give the reported value of clearance for this record: COc1ncc(-c2ccc3nccc(-c4ccnnc4)c3c2)cc1NS(=O)(=O)c1ccc(F)cc1F 5.8 mL/min/kg
